System: OVCAR-8 ovarian
assay_comment: NCI-60 one-dose screen, 48 h
measurement_conditions: 10 µM unless noted
About 83,000 compounds went through this panel and 20% of them were active in at least one assay; those are over-represented in the sample as a whole. Active and inactive are the calls of the source. How the source made its calls: active means growth percent below 10; inactive means the rest.
Allowed answers: active, inactive

Please let me know the test result on file for COc1cccc(Nc2ccnc3[nH]c4ccc([N+](=O)[O-])cc4c23)c1 .
inactive

Please let me know the test result on file for C=C1C(=O)O[C@H]2[C@H]1CC/C(CNC(=O)c1cc3ccccc3[nH]1)=C\CC[C@@]1(C)O[C@@H]21 .
active

Please let me know the test result on file for NC(=O)OCCn1cc(-c2nc(-c3c[nH]c4ncccc34)cs2)c2ccccc21 .
inactive

Please let me know the test result on file for CC12CCC(/C(=C/NNc3ccc([N+](=O)[O-])cc3[N+](=O)[O-])C1=O)C2(C)C (stereo not given) .
inactive

Please let me know the test result on file for O=C(CCCCl)NNc1nccc(Nc2ccc(S(=O)(=O)Nc3ccncc3)cc2)n1 .
inactive

Please let me know the test result on file for COc1cccc(NC(=O)c2cccc(C3CCc4c(cc(OC)c(OC)c4OC)O3)c2)c1 (stereo not given) .
inactive

Please let me know the test result on file for CC1CN=C(c2cccc(-c3ccc(-c4ccccc4)o3)c2)N1 (stereo not given) .
inactive

Please let me know the test result on file for CC(C(=O)O)n1c(O)c(C=Nc2cccnc2)sc1=S (stereo not given) .
inactive

Please let me know the test result on file for CC[C@]12C=CCN3CC[C@@]4(c5ccc(OC)cc5N(C)[C@H]4[C@@](O)(C(=O)OC)[C@@H]1OC(=O)CCCN1CCOCC1)[C@@H]32 .
inactive

Please let me know the test result on file for CCn1c2ccc(O)cc2c2c(C)c3c[n+](C(C)C)ccc3c(C)c21 .
inactive

###

Tested on: CCRF-CEM leukemia
assay_comment: NCI-60 one-dose screen, 48 h
measurement_conditions: 10 µM unless noted
Compounds without any hit were thinned out: in the full panel of roughly 83,000, 20% have a hit. Active and inactive are the calls of the source. The calls were made as follows: active = growth percent below 10; inactive = the rest.
Allowed answers: True for active, False for inactive

Please let me know the test result on file for CCCCCCCCn1ccc2cc(NC(=O)Cn3cc(CN4CCCCCC4)nn3)ccc21 .
True

Please let me know the test result on file for CN(C)c1ccc(-c2cc(-c3ccc(Nc4nc(Nc5ccc(Cl)cc5)nc(Nc5ccc(Cl)cc5)n4)cc3)nc(N)c2C#N)cc1 .
False

Please let me know the test result on file for CC1(C)OC(=O)C(=Cc2cccc(Br)c2)C(=O)O1 .
False

Please let me know the test result on file for Cc1cc2oc(=O)cc(CP(=O)(O)O)c2cc1O .
False

Please let me know the test result on file for O=C(/C=C/c1ccccc1)Nc1ncc(Cc2ccccc2)s1 .
False

###

System: KM12 colon
assay_comment: NCI-60 one-dose screen, 48 h
measurement_conditions: 10 µM unless noted
Experimental: Growth inhibition of the KM12 human tumor cell line is measured as a screen for anti-cancer activity. Cells are grown in 96 well plates and exposed to the test compound for 48 hours. Compounds are tested at a single concentration, which is 10^-5 M for most compounds. The reported endpoint is percent growth (GI% or GIPRCNT), where numbers from 0 - 100% represent growth inhibition, and numbers from -100% - 0 represent cell death. For example, a value of 40 represents 60% growth inhibition. […]
Compounds without any hit were thinned out: in the full panel of roughly 83,000, 20% have a hit. The source made the active and inactive calls. How the source made its calls: active means growth percent below 10; inactive means the rest.
Allowed answers: active, inactive

Please let me know the test result on file for O=C(CBr)CN1C(=O)c2ccccc2C1=O .
inactive

Please let me know the test result on file for Nc1c(C(=O)Nc2ccncc2)sc2nc3c(cc12)CCCCC3 .
inactive

Please let me know the test result on file for C#CC#CC#CC#CC#CC#CC#CC#CC[C@H]1OC[C@H](COC(=O)O[C@@H](C(=O)O[C@H]2C[C@@]3(O)[C@@H](OC(=O)c4ccccc4)[C@@H]4[C@]5(OC(C)=O)CO[C@@H]5C[C@H](O)[C@@]4(C)C(=O)[C@H](OC(C)=O)C(=C2C)C3(C)C)[C@@H](NC(=O)c2ccccc2)c2ccccc2)O1 .
inactive

Please let me know the test result on file for CCOC(=O)CSc1nc2sc3c(c2c(=O)n1-c1ccc([N+](=O)[O-])cc1)CCCCC3 .
inactive

Please let me know the test result on file for CS(=O)(=O)Nc1cncc(-c2ccc3ncnc(Nc4ccc(F)c(Cl)c4)c3c2)c1 .
inactive

Please let me know the test result on file for Cc1ccc(Nc2nc(-c3ccc(F)cc3)c(C#N)c(=O)n2C)cc1 .
inactive

Please let me know the test result on file for CCOC(=O)c1c(C)c2c(n1C)CSc1cc(S(=O)(=O)c3ccccc3)c(=O)[nH]c1-2 .
inactive

Please let me know the test result on file for COc1ccc2cc(-c3cnc4nonc4n3)ccc2c1 .
inactive

Please let me know the test result on file for CN1CCN(Cc2ccc(NC(=O)c3cncc(C#Cc4cncc5[nH]ncc45)c3)cc2C(F)(F)F)CC1 .
active

Please let me know the test result on file for COc1cc2c3c(c1O)-c1ccccc1[C@@H]1OC(=O)N(CC2)[C@H]31 .
inactive

Please let me know the test result on file for COc1ccc(C2CC(c3ccc(Nc4nc(Nc5ccc(F)cc5)nc(Nc5ccc(F)cc5)n4)cc3)=NN2C(C)=O)cc1 (stereo unspecified) .
inactive

Please let me know the test result on file for CCC(C)Nc1ccc(NC(C)CC)cc1 (stereo unspecified) .
inactive

Please let me know the test result on file for CCc1ccc(CCC(=O)Nc2ncc(Cc3ccc(Cl)cc3)s2)o1 .
inactive

Please let me know the test result on file for CCOC(=O)N1CCN(S(=O)(=O)c2oc(-c3ccc(Cl)cc3)nc2C#N)CC1 .
inactive

Please let me know the test result on file for C=C(C)[C@@H]1CC[C@]2(CO)CC[C@]3(C)[C@H](CC[C@@H]4[C@@]5(C)CCC(NCCc6ccc(O)cc6)C(C)(C)[C@@H]5CC[C@]43C)[C@@H]12 (stereo partly specified) .
active

Please let me know the test result on file for Cc1nc2ccccc2c(/C=C/c2ccc(C(F)(F)F)cc2)c1C(=O)/C=C/c1ccccc1 .
active

Please let me know the test result on file for CC(C)c1ccc(C(=O)Nc2sc3cc(O)ccc3c2C#N)cc1 .
inactive

Please let me know the test result on file for CC1=NN(c2ccc(Cl)cc2)CC1(C)N=O (stereo unspecified) .
inactive

Please let me know the test result on file for CCCCCCCC/C=C\CCCCCCCCOc1ccc(CC(=O)NCC[N+](C)(C)C)cc1 .
inactive

Please let me know the test result on file for O=C1NC(=C(Cl)Cl)/C(=N/S(=O)(=O)NCCc2c[nH]c3ccccc23)N1 .
active

Please let me know the test result on file for O=C(N/N=C/c1ccc(O)cc1O)c1ccc(Nc2ccnc(C(F)(F)F)c2)cc1 .
inactive

Please let me know the test result on file for CCCCCCCCn1ccc2cc(NC(=O)Cn3cc(CN4CCCCCC4)nn3)ccc21 .
active

Please let me know the test result on file for O=C(CCC(=O)c1nc2ncccc2[nH]1)NN1C(=O)CSC1c1ccc(Cl)cc1 (stereo unspecified) .
inactive

Please let me know the test result on file for C#CC#CC#CC#CC#CC#CC#CC#CC[C@H]1OC[C@@H](COC(=O)O[C@@H](C(=O)O[C@H]2C[C@@]3(O)[C@@H](OC(=O)c4ccccc4)[C@@H]4[C@]5(OC(C)=O)CO[C@@H]5C[C@H](O)[C@@]4(C)C(=O)[C@H](OC(C)=O)C(=C2C)C3(C)C)[C@@H](NC(=O)c2ccccc2)c2ccccc2)O1 .
inactive

Please let me know the test result on file for N#CCC1=NC(c2cccs2)=Nc2ccccc2S1 .
inactive

Please let me know the test result on file for Fc1ccc(CNc2c3ccccc3nc3ccccc23)cc1 .
inactive

Please let me know the test result on file for COc1ccc2[nH]cc(-c3nc(-c4cn(C)c5ccncc45)cs3)c2c1 .
active

Please let me know the test result on file for CCCCCCCCCCCCCCCCOC(=O)c1c(C)[nH]c(/C=C2\N=C(c3ccc[nH]3)C=C2OC)c1C .
inactive

Please let me know the test result on file for O=c1oc2c(cnc3ccccc32)cc1-c1cccs1 .
inactive

Please let me know the test result on file for Cc1cc(C)c(-c2c(O)c(Br)c(-c3c(C)cc(C)c(Br)c3C)c(O)c2Br)c(C)c1Br .
inactive

Please let me know the test result on file for O=C(CCl)Nc1ccc2c(Nc3cc(O)ccc3Cl)ncnc2c1 .
active

Please let me know the test result on file for C=C1C(=O)O[C@H]2[C@H]1CC/C(Cn1cc(-c3cc(C(F)(F)F)cc(C(F)(F)F)c3)nn1)=C\CC[C@@]1(C)O[C@@H]21 .
active

Please let me know the test result on file for CC(C)(C)c1cc(C=Nc2cccc(C(F)(F)F)c2)c(O)c(C(C)(C)C)c1 .
inactive

Please let me know the test result on file for COC1=CC(c2ccc[nH]2)=N/C1=C\c1[nH]c(C)c(CC(=O)OCc2ccccc2)c1C .
active

Please let me know the test result on file for CN(C)c1ccc(/C=C/C(=O)c2ccc(Nc3nc(Nc4ccc(F)cc4)nc(Nc4ccc(Cl)cc4)n3)cc2)cc1 .
inactive

Please let me know the test result on file for CCN1C(=O)N(CC)C2C1NN=c1s/c(=C\c3ccccc3Br)c(=O)n12 (stereo unspecified) .
inactive
